Target sequence: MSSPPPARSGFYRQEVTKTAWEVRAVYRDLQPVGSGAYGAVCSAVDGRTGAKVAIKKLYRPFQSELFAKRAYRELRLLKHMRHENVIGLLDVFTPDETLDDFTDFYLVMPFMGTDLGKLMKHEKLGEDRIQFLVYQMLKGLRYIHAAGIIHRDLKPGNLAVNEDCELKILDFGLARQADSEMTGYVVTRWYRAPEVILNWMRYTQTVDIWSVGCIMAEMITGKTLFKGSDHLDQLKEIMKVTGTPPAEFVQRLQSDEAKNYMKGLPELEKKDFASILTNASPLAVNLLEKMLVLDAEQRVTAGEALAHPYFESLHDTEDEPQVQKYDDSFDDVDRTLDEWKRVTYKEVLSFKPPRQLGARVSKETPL
pIC50: −log10 of the molar value.
Returns one of YES or NO; YES when pIC50 is >= 7.

Example entries and their recorded answers appear below.
Is pIC50 for Cc1ccc(-n2nc(C(C)(C)C)cc2NC(=O)Nc2ccc(Oc3cc(NC(=O)NCCN(C)C)ncn3)c(Cl)c2Cl)cc1 at or above 7? YES

Is pIC50 for COCC(=O)Nc1cc(Oc2c(NC(=O)Nc3cc(C(C)(C)C)nn3-c3ccc(C)cc3)ccc(F)c2F)ccn1 at or above 7? NO

Is pIC50 for CNC(=O)Nc1cc(Oc2ccc(NC(=O)Nc3cc(C(C)(C)C)nn3-c3ccc(O)cc3)c(Cl)c2Cl)ccn1 at or above 7? NO

Is pIC50 for CNC(=O)Nc1cc(COc2ccc(NC(=O)Nc3cc(C(C)(C)C)nn3-c3ccc(C)cc3)c3cccnc23)ccn1 at or above 7? NO

Is pIC50 for COCC(=O)Nc1cc(Oc2ccc(NC(=O)Nc3cc(C(C)(C)C)nn3-c3ccc(C)cc3)c(F)c2F)ccn1 at or above 7? YES

Let's switch to this compound now.
Is pIC50 for COCC(=O)Nc1nccc(Oc2ccc(NC(=O)Nc3cc(C(C)(C)C)nn3-c3ccc(OC)cc3)c(Cl)c2Cl)n1 at or above 7? YES
